- TARGET: Toll-like receptor 4 (Mus musculus)
- Sequence (Q9QUK6 whole entry): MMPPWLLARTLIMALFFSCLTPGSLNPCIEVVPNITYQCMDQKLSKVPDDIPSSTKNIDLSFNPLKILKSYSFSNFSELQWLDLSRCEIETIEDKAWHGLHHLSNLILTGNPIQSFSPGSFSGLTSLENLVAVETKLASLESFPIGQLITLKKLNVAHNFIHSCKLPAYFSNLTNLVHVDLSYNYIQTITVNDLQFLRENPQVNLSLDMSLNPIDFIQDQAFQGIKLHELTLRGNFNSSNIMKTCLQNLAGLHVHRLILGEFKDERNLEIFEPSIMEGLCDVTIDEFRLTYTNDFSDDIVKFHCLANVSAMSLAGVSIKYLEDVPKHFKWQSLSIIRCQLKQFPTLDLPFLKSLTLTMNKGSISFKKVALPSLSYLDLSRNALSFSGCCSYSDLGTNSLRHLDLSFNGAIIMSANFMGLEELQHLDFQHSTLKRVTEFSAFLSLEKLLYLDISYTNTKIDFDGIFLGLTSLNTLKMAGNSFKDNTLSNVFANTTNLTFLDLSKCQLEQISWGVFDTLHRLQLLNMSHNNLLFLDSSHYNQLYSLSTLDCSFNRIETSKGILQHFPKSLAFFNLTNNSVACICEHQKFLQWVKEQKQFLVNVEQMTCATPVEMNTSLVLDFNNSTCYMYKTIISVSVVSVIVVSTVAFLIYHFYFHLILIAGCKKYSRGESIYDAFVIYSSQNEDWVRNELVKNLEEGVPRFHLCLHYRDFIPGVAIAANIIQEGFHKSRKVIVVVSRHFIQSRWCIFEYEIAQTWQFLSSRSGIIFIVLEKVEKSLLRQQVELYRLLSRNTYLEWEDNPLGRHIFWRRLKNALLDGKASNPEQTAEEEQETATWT
- EXPERIMENT NOTES: Inhibition of LPS-induced TLR4 activation in mouse RAW264.7 cells assessed as reduction in NO production after 18 to 24 hrs
pIC50: −log10 of the molar value.
EXPERIMENTAL READOUT: pIC50

Cc1nn(Cc2ccccc2Cl)c(C)c1CN(C)CC(O)COc1ccc(Cl)c(Cl)c1 (racemic): 4.70
C=Cc1ccccc1Cn1nc(C)c(CN(C)CC(O)COc2ccc(OCC)cc2)c1C (racemic): 4.61
C=Cc1ccccc1Cn1nc(C)c(CN(C)CC(O)COc2ccc(Cl)cc2)c1C (racemic): 4.63

(I) CCOc1ccc(OCC(O)CN(C)Cc2c(C)nn(Cc3ccc(Cl)c(Cl)c3)c2C)cc1 (racemic)
(II) COc1ccccc1OCC(O)CN(C)Cc1c(C)nn(Cc2ccccc2Cl)c1C (racemic)
In: Please state the entry with greater pIC50 among I and II . Answer by quoting the chosen item's label.
Out: I
(I: 4.66, II: 4.03)
